Items are presented alongside their recorded Average MIC.
System: E. coli
Assay type: cell-based
Details: E. coli 178; average of triplicate experiments, Table 5
Procedure: A series of derivatives of the NI0138-51 (SEQ ID NO:12) truncation were carried out with a view to maintaining stability of the helix and/or increasing net positive charge of the peptides (Table 3). Minimum inhibitory concentrations (MICs) were determined for each derivative against a range of Gram positive and Gram negative organisms by a modified 2-fold microtitre broth dilution method (Wu and Hancock, J Biol Chem 1999; 274: 29-35) (Table 2). […] This could not have been predicted.
No end group written: not given here.
Give your result in µg/mL as a bare value.

Previously resolved entries follow.
SFEWIYKQIKKLWA [SEQ ID NO:12, SFEWIYKQIKKLWA] :: 5
SFEWIKYQIKKLWA [SEQ ID NO:2, SFEWIKYQIKKLWA] :: 27

Here is the next item to consider.
Look up Average MIC for this sequence: SFEWIYKQIWKLKRGLA [SEQ ID NO:3, SFEWIYKQIWKLKRGLA]
21

----------
Catalogue of Average MIC values
system: E. coli; format: cell-based; conditions: E. coli 50; average of triplicate experiments, Table 5
No end group written: not given here.
Number only, in µg/mL; omit the unit.

Example entries and their recorded answers appear below.
SFEWIKYQIKKLWA [SEQ ID NO:2, SFEWIKYQIKKLWA] :: 27
SFEWIYKQIKKLWA [SEQ ID NO:12, SFEWIYKQIKKLWA] :: 7

Short answer please: Average MIC, E. coli, entry SFEWIYKQIWKLKRGLA [SEQ ID NO:3, SFEWIYKQIWKLKRGLA]
11

----------
tested on: MRSA; format: cell-based, Staphylococcus aureus
No end group written: not given here.
READOUT: MIC (µg/mL)
Return type: number; implicit unit µg/mL.

Guide cases for MIC, answers given:
SFEWIYKQIKKLWA [SEQ ID NO:12, SFEWIYKQIKKLWA] :: 12
KHKGTILKWINAGQSFEWIYKQIKKLWA [SEQ ID NO:16] :: 12

Report MIC for MAAFMKLIQFLATKGQKYVSLAWKHKGTILKWINAGQSFEWIYKQIKKLWA [SEQ ID NO:10, reference compound] please.
0.03
